System: erythrocyte suspensions of horse blood;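 note: Read-out is hemoglobin release into the supernatant, with a buffer-only blank subtracted as the 0% baseline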
CONDITION_PARAMETERS: 250 µM peptide; horse erythrocytes 5% vol/vol, TRIS buffer pH 7.2, 1 h at 37°C, absorbance 540 nm; relative to melittin 100 μM; ± confidence interval (α = 0.05)
Where a SMILES comes first, the peptide text is derived from it. The star is where a group is joined. Octanoyl = CCCCCCCC(=O)*; Hexanoyl = CCCCCC(=O)*; Butyryl = CCCC(=O)*
REPORTED_ENDPOINT: Hemolysis (%) 250 µM
Respond numerically; units are % and should not be typed.

I'd like to know its Hemolysis (%) 250 µM. The compound in question is CCCCCC(=O)NCCCC[C@@H]1NC(=O)[C@H](CC(C)C)NC(=O)[C@H](CCCCN)NC(=O)[C@H](CCCCN)NC(=O)[C@H](CCC(N)=O)NC(=O)[C@H](CC(C)C)NC(=O)[C@H](CCCCN)NC(=O)[C@H](CCCCN)NC(=O)[C@H](Cc2ccccc2)NC(=O)[C@H](CCCCN)NC1=O [BPC586, c(KKLK(CO-nC5H11)KFKKLQ)] (cyclo(FKKLQKKLK(Hexanoyl)K))
95

I'd like to know its Hemolysis (%) 250 µM. The compound in question is CCCCCCCC(=O)NCCCC[C@@H]1NC(=O)[C@H](CCCCN)NC(=O)[C@H](CC(C)C)NC(=O)[C@H](CCCCN)NC(=O)[C@H](CCCCN)NC(=O)[C@H](CCC(N)=O)NC(=O)[C@H](CC(C)C)NC(=O)[C@H](CCCCN)NC(=O)[C@H](CCCCN)NC(=O)[C@H](Cc2c[nH]cn2)NC1=O [BPC670, c(KKLKK(CO-C7H15)HKKLQ)] (cyclo(HKKLQKKLKK(Octanoyl)))
40

I'd like to know its Hemolysis (%) 250 µM. The compound in question is CCCC(=O)NCCCC[C@@H]1NC(=O)[C@H](CCCCN)NC(=O)[C@H](CC(C)C)NC(=O)[C@H](CCCCN)NC(=O)[C@H](CCCCN)NC(=O)[C@H](CCC(N)=O)NC(=O)[C@H](CC(C)C)NC(=O)[C@H](CCCCN)NC(=O)[C@H](CCCCN)NC(=O)[C@H](Cc2c[nH]cn2)NC1=O [BPC718, c(KKLKK(CO-C3H7)HKKLQ)] (cyclo(HKKLQKKLKK(Butyryl)))
4

====

Tested on: Erwinia amylovora PMV6076
RUN_DESCRIPTION: MIC, in vitro growth inhibition
Format: cell-based
CONDITION_PARAMETERS: TSB, 25°C, 48 h, OD 600 nm; tested at 3.1, 6.2, 12.5, 25, 50 μM; three replicates, experiment repeated twice; MIC = lowest concentration with no growth
Where a SMILES comes first, the peptide text is derived from it. [ ]: non-standard residue; d: D form. The star is where a group is joined. Pentanoyl(4-Me) = CC(C)CCC(=O)*; Pentanoyl = CCCCC(=O)*; Butyryl = CCCC(=O)*
REPORTED_ENDPOINT: MIC Ea

I'd like to know its MIC Ea. The molecule in question is CCCCC(=O)NCCCC[C@@H]1NC(=O)[C@H](CCCCN)NC(=O)[C@H](CC(C)C)NC(=O)[C@H](CCCCN)NC(=O)[C@H](CCCCN)NC(=O)[C@H](CCC(N)=O)NC(=O)[C@H](CC(C)C)NC(=O)[C@H](CCCCN)NC(=O)[C@H](CCCCN)NC(=O)[C@H](Cc2ccccc2)NC1=O [BPC526, c(KKLKK(CO-C4H9)FKKLQ)] (cyclo(FKKLQKKLKK(Pentanoyl)))
12.5 to 25 µM

I'd like to know its MIC Ea. The molecule in question is CC(C)CCC(=O)NCCCC[C@H]1NC(=O)[C@H](CCCCN)NC(=O)[C@H](CC(C)C)NC(=O)[C@H](CCCCN)NC(=O)[C@H](CCCCN)NC(=O)[C@H](CCC(N)=O)NC(=O)[C@H](CC(C)C)NC(=O)[C@H](CCCCN)NC(=O)[C@H](CCCCN)NC(=O)[C@@H](Cc2ccccc2)NC1=O [BPC634, c(KKLKk(CO-isoC5H11)fKKLQ)] (cyclo(KKLK[dK](Pentanoyl(4-Me))[dF]KKLQ))
>50 µM

I'd like to know its MIC Ea. The molecule in question is CCCC(=O)NCCCC[C@@H]1NC(=O)[C@H](CCC(N)=O)NC(=O)[C@H](CC(C)C)NC(=O)[C@H](CCCCN)NC(=O)[C@H](CCCCN)NC(=O)[C@@H](Cc2ccccc2)NC(=O)[C@H](CCCCN)NC(=O)[C@H](CCCCN)NC(=O)[C@H](CC(C)C)NC(=O)[C@H](CCCCN)NC1=O [BPC716, c(K(CO-C3H7)KLKKfKKLQ)] (cyclo(K(Butyryl)KLKK[dF]KKLQ))
25 to 50 µM
